The molecules listed here are annotated with their microsomal CLint at 1 uM.
# test-name: Metabolic stability in human hepatic microsome
# Assay type: in vitro ADME
# condition-set: microsomes, pH 7.4; human hepatic microsome, NADPH(+); read-out: CL NADPH(+)
Starred links: 1 amine or outer side, 2 acyl side, 3 side chain; linkers in the order of their positions; H or OH if unused. Positions of bridges follow the written chain, without caps; N, C: chain ends. Non-standard residues stand in square brackets, D forms with d. Residues, ends and D or L forms follow the SMILES beside them. *: point of attachment. NMeF = CN[C@@H](Cc1ccccc1)C(=O)O; NMeI = CC[C@H](C)[C@H](NC)C(=O)O; NMeβAla = CN(CCC(=O)[*:2])[*:1]; NMeL = CN[C@@H](CC(C)C)C(=O)O; NMeA = CN[C@@H](C)C(=O)O; Piperidide = C1CCN(*)CC1; dNMeA = CN[C@H](C)C(=O)O; Sar = CNCC(=O)O; tBu = CC(C)(C)*
Number in µL/min/mg, nothing else.

Example entries begin here.
{"molecule": "CC(C)C[C@H]1C(=O)N[C@@H](COC(C)(C)C)C(=O)N(C)CC(=O)N[C@@H]([C@@H](C)O)C(=O)N[C@H](C(=O)N2CCCCC2)CC(=O)N[C@@H](C(C)C)C(=O)N(C)[C@@H](Cc2ccccc2)C(=O)N1C [DP-724] (V[NMeF][NMeL]S(tBu)[Sar]TD-Piperidide; lactam N-7)", "assay-metric": "microsomal CLint at 1 uM", "measured-number": 160}
{"molecule": "CC[C@H](C)[C@@H]1NC(=O)[C@H](C)NC(=O)[C@H](CC(C)C)N(C)C(=O)[C@H](CC(C)C)NC(=O)[C@H](Cc2ccccc2)NC(=O)[C@H](C(C)C)NC(=O)[C@H](C)N(C)C(=O)[C@H](CC(C)C)NC(=O)[C@H](Cc2ccccc2)N(C)C(=O)[C@H]([C@@H](C)O)NC(=O)CNC(=O)[C@H](C)NC(=O)C[C@@H](C(=O)N2CCCCC2)NC1=O [DP-87] (AGT[NMeF]L[NMeA]VFL[NMeL]AID-Piperidide; lactam N-13)", "assay-metric": "microsomal CLint at 1 uM", "measured-number": 120}

Requested read-out: microsomal CLint at 1 uM. Entry: CC(C)C[C@H]1NC(=O)C[C@@H](C(=O)N2CCCCC2)NC(=O)[C@H](CC(C)C)N(C)C(=O)[C@H](Cc2ccccc2)NC(=O)[C@H](CC(C)C)N(C)C(=O)[C@H](C)N(C)C(=O)[C@H](Cc2c[nH]cn2)NC(=O)[C@H](CC(C)C)N(C)C(=O)[C@H](Cc2ccccc2)N(C)C1=O [DP-904] ([dL][NMeF][NMeL]H[NMeA][NMeL]F[NMeL]D-Piperidide; lactam N-9) 89

Request: CC(C)C[C@H]1C(=O)N[C@H](C(=O)N2CCCCC2)CC(=O)N(C)[C@H](C)C(=O)N(C)[C@@H](CC(C)C)C(=O)N[C@@H]([C@@H](C)O)C(=O)N(C)[C@@H](CC(C)C)C(=O)N[C@@H](COC(C)(C)C)C(=O)N1C [DP-725] ([dNMeA][NMeL]T[NMeL]S(tBu)[NMeL]D-Piperidide; lactam N-7) 138

Request: CC[C@H](C)[C@H](NC(=O)[C@H](CC(C)C)N(C)C(=O)CN(C)C(=O)[C@@H](NC(=O)[C@@H]1CC(=O)N[C@H](C(C)C)C(=O)N[C@@H](C)C(=O)N[C@@H]([C@@H](C)O)C(=O)N(C)[C@@H](C)C(=O)N[C@@H](Cc2ccccc2)C(=O)N(C)[C@@H](CC(C)C)C(=O)N(C)[C@@H](Cc2ccccc2)C(=O)N(C)[C@@H](CC(C)C)C(=O)N1)C(C)C)C(=O)N1CCCCC1 [DP-939] ([dV]AT[NMeA]F[NMeL][NMeF][NMeL]DV[Sar][NMeL]I-Piperidide; lactam N-9) 8

Request: CC[C@H](C)[C@H]1C(=O)N(C)[C@@H](CC(C)C)C(=O)N[C@H](C(=O)N2CCCCC2)CC(=O)N(C)CCC(=O)N(C)[C@@H](CC(C)C)C(=O)N[C@@H]([C@@H](C)O)C(=O)N(C)[C@@H](C)C(=O)N(C)[C@@H](Cc2ccccc2)C(=O)N[C@@H](C)C(=O)N(C)[C@@H](Cc2ccccc2)C(=O)N[C@@H](CC(C)C)C(=O)N1C [DP-240] ([NMeβAla][NMeL]T[NMeA][NMeF]A[NMeF]L[NMeI][NMeL]D-Piperidide; lactam N-11) 125
